Test system: HeLa Kyoto;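 note: synchronized HeLa Kyoto cells (double thymidine block for G1/S, nocodazole release for mitosis), protein amounts in NP-40 versus SDS lysates quantified by mass spectrometry, three biological replicates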
protocol-details: solubility change mitosis vs G1/S (difference of NP-40 vs SDS log2 ratios) (log2 ratio difference); higher = more soluble in mitosis
readout: solubility change mitosis (log2)
Quick one: just the number, no unit, thanks!

Query (sequence): MSRHEGVSCDACLKGNFRGRRYKCLICYDYDLCASCYESGATTTRHTTDHPMQCILTRVDFDLYYGGEAFSVEQPQSFTCPYCGKMGYTETSLQEHVTSEHAETSTEVICPICAALPGGDPNHVTDDFAAHLTLEHRAPRDLDESSGVRHVRRMFHPGRGLGGPRARRSNMHFTSSSTGGLSSSQSSYSPSNREAMDPIAELLSQLSGVRRSAGGQLNSSGPSASQLQQLQMQLQLERQHAQAARQQLETARNATRRTNTSSVTTTITQSTATTNIANTESSQQTLQNSQFLLTRLNDPKMSETERQSMESERADRSLFVQELLLSTLVREESSSSDEDDRGEMADFGAMGCVDIMPLDVALENLNLKESNKGNEPPPPPL [KCMF1] ; field requested: solubility change mitosis (log2) 0.00437
